# System under test: Epidermal growth factor receptor (Homo sapiens, UniProt P00533, T790M)
# Sequence (P00533 25-1210 T790M limits assumed): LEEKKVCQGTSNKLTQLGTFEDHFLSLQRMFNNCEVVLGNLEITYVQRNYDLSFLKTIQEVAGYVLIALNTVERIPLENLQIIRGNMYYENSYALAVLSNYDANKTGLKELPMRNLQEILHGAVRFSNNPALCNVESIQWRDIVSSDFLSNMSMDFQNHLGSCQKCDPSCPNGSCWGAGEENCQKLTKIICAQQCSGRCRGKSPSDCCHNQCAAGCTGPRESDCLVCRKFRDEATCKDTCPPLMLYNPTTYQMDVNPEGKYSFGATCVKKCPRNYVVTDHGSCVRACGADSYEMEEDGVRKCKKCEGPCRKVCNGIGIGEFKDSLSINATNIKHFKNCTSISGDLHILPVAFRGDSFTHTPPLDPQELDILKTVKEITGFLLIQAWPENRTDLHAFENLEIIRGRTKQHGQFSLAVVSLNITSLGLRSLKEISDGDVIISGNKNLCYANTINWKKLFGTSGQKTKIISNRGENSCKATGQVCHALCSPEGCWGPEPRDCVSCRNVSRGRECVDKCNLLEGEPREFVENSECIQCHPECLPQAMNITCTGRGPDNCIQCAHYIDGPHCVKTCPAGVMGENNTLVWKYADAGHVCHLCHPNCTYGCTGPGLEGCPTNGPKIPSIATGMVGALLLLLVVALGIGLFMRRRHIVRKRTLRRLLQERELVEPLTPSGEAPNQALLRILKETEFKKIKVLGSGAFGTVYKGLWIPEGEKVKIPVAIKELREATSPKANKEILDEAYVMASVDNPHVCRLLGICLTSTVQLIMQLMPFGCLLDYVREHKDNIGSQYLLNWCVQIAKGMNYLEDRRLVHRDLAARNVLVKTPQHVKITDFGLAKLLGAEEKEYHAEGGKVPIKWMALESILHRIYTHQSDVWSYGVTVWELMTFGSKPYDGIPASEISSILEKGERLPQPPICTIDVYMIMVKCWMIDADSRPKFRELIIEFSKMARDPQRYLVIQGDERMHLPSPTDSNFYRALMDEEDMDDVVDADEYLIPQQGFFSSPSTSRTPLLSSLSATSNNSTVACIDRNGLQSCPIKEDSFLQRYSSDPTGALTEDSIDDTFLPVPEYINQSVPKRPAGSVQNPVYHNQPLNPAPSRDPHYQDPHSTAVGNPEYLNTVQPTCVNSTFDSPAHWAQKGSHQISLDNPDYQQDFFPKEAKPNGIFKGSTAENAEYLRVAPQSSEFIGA
# Format: protein assay
Measurement label: IC50 (nM)

CN(C)C/C=C/C(=O)Nc1cccc(Nc2nc(N/N=C/c3cn(Cc4ccccc4)c4ccccc34)ncc2Cl)c1: 790
C=CC(=O)Nc1cccc(Nc2nc(N/N=C/c3ccc(F)cc3)ncc2Cl)c1: 1120
C=CC(=O)Nc1cccc(Nc2nc(N/N=C(\C)c3ccc(F)cc3)ncc2Cl)c1: 2530
CN(C)C/C=C/C(=O)Nc1cccc(Nc2nc(N/N=C/c3ccc(F)cc3F)ncc2Cl)c1: 2510

[A] C=CC(=O)Nc1cccc(Nc2nc(N/N=C/c3ccccc3F)ncc2Cl)c1
[B] C/C(=N\Nc1ncc(Cl)c(Nc2cccc(NC(=O)/C=C/CN(C)C)c2)n1)c1ccc(F)cc1F
Query: Compare A and B and name the one whose reported IC50 is smaller. Your answer should be the label attached to the chosen record.
Reply: B

Hey, just so you know, these numbers are from ChEMBL document CHEMBL3739350.
